Experiment: GFP drop in mixed WT/humanized-ribosome E. coli culture – GFP/RFP fluorescence, OD600, single point, bacterial rRNA inhibitor project, primary screen (AID 720706)
Settings: E. coli WT GFP vs humanized-ribosome RFP mutants, 24 h; measured here: RFP humanized mutant strains, DMSO median 0, no signal -100, concentration not given here
About 5,500 (1.6%) of roughly 350,000 compounds were called active. For the sample, actives were picked, then their nearest neighbours and some compounds at random.
RFP signal change values by entry

# compound, RFP signal change [%]
data = [
    ("CCOC(=O)C(=Cc1ccccc1)C(=O)c1ccccc1", -8.34),
    ("Cc1ccccc1-c1ccc([C@H]2[C@H](CO)N3C(=O)CN(C(=O)c4cccnc4)C[C@@H]23)cc1", 5.21),
    ("CCCC#Cc1ccc([C@H]2[C@@H](CO)N3CCCCN(S(=O)(=O)Cc4ccccc4)C[C@H]23)cc1", -7.77),
    ("COc1ccc(C2=NN(C(=O)c3cccnc3)C(c3ccccc3)C2)cc1 (configuration not stated)", 3.54),
    ("O=C(Nc1nnc(SCc2c(Cl)cccc2Cl)s1)c1cccc([N+](=O)[O-])c1", -1.26),
    ("COc1ccc(C2CC(c3ccccc3)=NN2C(=O)CSc2nccc(=O)[nH]2)cc1 (configuration not stated)", -0.959),
    ("CC(=O)O[C@]1(C(C)=O)CC[C@H]2[C@@H]3C=C(C)C4=CC(=O)CC[C@]4(C)[C@H]3CC[C@@]21C", -10.6),
    ("CC(=O)C12CC(C)=C(C)CC1CC1C3CCC4=CC(=O)CCC4(C)C3CCC12C (configuration not stated)", 5.44),
    ("Cc1cc(C)n(S(=O)(=O)c2cccc([N+](=O)[O-])c2)n1", 1.61),
    ("CCCNC(=O)N1CC2(CN(C(=O)C3CCCCC3)C2)c2c([nH]c3cc(OC)ccc23)[C@@H]1CO", -0.961),
    ("COc1ccc(C2=NN(C(=O)c3ccccc3C(=O)O)C(c3ccccc3O)C2)cc1 (configuration not stated)", -2.39),
    ("CCC(=O)N1[C@@H](CO)[C@@H](c2ccccc2)C12CN(C(=O)c1cnccn1)C2", 1.42),
    ("CC=Cc1ccc2n(c1=O)C[C@@H]1[C@@H](CO)[C@H](C(=O)N(C)C)N(CC3CCOCC3)[C@H]21 (mixture of isomers)", 0.865),
    ("O=C(Nc1ccc(C2CC2(Cl)Cl)cc1)c1cccc([N+](=O)[O-])c1 (configuration not stated)", -6.25),
    ("C[C@H](CO)N1C[C@H](C)[C@H](CN(C)C(=O)Nc2cccc3ccccc23)OCCCC[C@H](C)Oc2ccc(NC(=O)Nc3ccc4c(c3)OCO4)cc2C1=O", -1.79),
    ("C[C@@H]1CN([C@@H](C)CO)S(=O)(=O)c2ccc(C#C[C@@H](C)O)cc2O[C@@H]1CN(C)CC1CC1", -1.26),
    ("C[C@@H]1CN([C@@H](C)CO)C(=O)Cc2cc(NS(=O)(=O)c3ccc(Cl)cc3)ccc2O[C@H]1CN(C)C(=O)Nc1cccc2ccccc12", 1.87),
]
